Molecular target: TAOK1 (human)
Experiment: radiometric filter-binding kinase assay
Details: compound 100.0 µM; ATP 20 µM
OUTCOME MEASURE: inhibition (%)
Entry rule: numbers only, all in %.

Some solved entries appear below for comparison.
>>> assay_value("O=c1c(NC(=S)NCc2ccccc2)cnc2[nH]ccn12")
0
>>> assay_value("Nc1cnc2c(-c3c(F)cccc3F)cccn2c1=O")
82
>>> assay_value("O=C(c1cccc(-c2cc3c(=O)[nH]cnc3s2)c1)N1CCOCC1")
3
>>> assay_value("Nc1nc2cnc(-c3ccccc3)cn2n1")
37
>>> assay_value("O=c1cc(-c2ccccc2F)nc2[nH]ccn12")
3

Which inhibition reading was recorded for the molecule COc1ccc(-c2cc3c(=O)[nH]cnc3s2)cc1OC ?
28

Which inhibition reading was recorded for the molecule CC1CN(c2nc3ccccn3c(=O)c2N)CC(C)O1 (configuration not stated) ?
0

Which inhibition reading was recorded for the molecule CC(=O)Nc1nc2cnc(-c3c(C)cccc3C)cn2n1 ?
1

Which inhibition reading was recorded for the molecule COc1ccc(NC(=S)Nc2cnc3[nH]cnn3c2=O)cn1 ?
0

Which inhibition reading was recorded for the molecule CC(C)(C)Nc1c(C2CC2)nc2[nH]cnn12 ?
0

Which inhibition reading was recorded for the molecule O=C(Nc1cnc2[nH]cnn2c1=O)c1ccccc1 ?
0

Which inhibition reading was recorded for the molecule CC(=O)Nc1nc2cnc(-c3ccccc3)cn2n1 ?
0

----------
Target: MAP2K2 (human) (UniProt P36507)
Sequence (P36507 whole entry, looked up): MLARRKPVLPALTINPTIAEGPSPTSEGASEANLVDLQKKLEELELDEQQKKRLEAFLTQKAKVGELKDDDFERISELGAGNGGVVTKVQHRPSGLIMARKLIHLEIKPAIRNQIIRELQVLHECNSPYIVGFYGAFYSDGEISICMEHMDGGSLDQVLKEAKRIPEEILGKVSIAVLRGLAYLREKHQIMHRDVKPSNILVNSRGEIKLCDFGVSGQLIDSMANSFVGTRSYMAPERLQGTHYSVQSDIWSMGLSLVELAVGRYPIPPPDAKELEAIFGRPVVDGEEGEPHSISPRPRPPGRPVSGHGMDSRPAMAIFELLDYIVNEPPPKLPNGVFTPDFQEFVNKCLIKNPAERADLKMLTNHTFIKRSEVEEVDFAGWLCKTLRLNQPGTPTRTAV
Experiment: radiometric filter-binding kinase assay
Settings: compound 100.0 µM; ATP 5 µM
OUTCOME MEASURE: inhibition
Please format your answer as a value with the unit trailing.

Which inhibition reading was recorded for the molecule CC(=O)Nc1nc2cnc(-c3c(C)cccc3C)cn2n1 ?
0%

----------
Measured inhibition, listed per entry.
Target: PHKG1 (human)
Assay: radiometric filter-binding kinase assay
Settings: compound 100.0 µM; ATP 50 µM
Entry rule: numbers only, all in %.

>>> assay_value("Nc1nc2cnc(-c3ccccc3)cn2n1")
83
>>> assay_value("O=C(Nc1cnc2[nH]cnn2c1=O)c1ccccc1")
28

Which inhibition reading was recorded for the compound O=C(Nc1cnc2[nH]ccn2c1=O)c1ccccc1 ?
44

----------
Target: MELK (human)
Test: radiometric filter-binding kinase assay
Conditions: compound 100.0 µM; ATP 50 µM
Measured inhibition, listed per entry.
Entry rule: numbers only, all in %.

Some solved entries appear below for comparison.
>>> assay_value("CC(=O)Nc1nc2cnc(-c3ccccc3)cn2n1")
17
>>> assay_value("CC(=O)Nc1nc2cnc(-c3c(C)cccc3C)cn2n1")
0
>>> assay_value("COc1ccc(-c2cc3c(=O)[nH]cnc3s2)cc1OC")
22

Which inhibition reading was recorded for the compound O=C(Nc1cnc2[nH]ccn2c1=O)c1ccccc1 ?
2

Which inhibition reading was recorded for the compound CC(C)(C)Nc1c(COCc2ccccc2)nc2[nH]cnn12 ?
16

Which inhibition reading was recorded for the compound O=C(Nc1cnc2[nH]cnn2c1=O)c1ccccc1 ?
0

Which inhibition reading was recorded for the compound O=c1cc(-c2ccccc2F)nc2[nH]ccn12 ?
1

Which inhibition reading was recorded for the compound O=C(c1cccc(-c2cc3c(=O)[nH]cnc3s2)c1)N1CCOCC1 ?
25

----------
Target: MAPK3 (human)
Assay: radiometric filter-binding kinase assay
Settings: compound 100.0 µM; ATP 5 µM
OUTCOME MEASURE: inhibition (%)
Entry rule: numbers only, all in %.

>>> assay_value("COc1ccc(-c2cc3c(=O)[nH]cnc3s2)cc1OC")
26
>>> assay_value("CC(C)(C)Nc1c(COCc2ccccc2)nc2[nH]cnn12")
1
>>> assay_value("CC(=O)Nc1nc2cnc(-c3ccccc3)cn2n1")
13

Which inhibition reading was recorded for the compound COc1ccc(NC(=S)Nc2cnc3[nH]cnn3c2=O)cn1 ?
0

Which inhibition reading was recorded for the compound O=C(Nc1cnc2[nH]ccn2c1=O)c1ccccc1 ?
10
